Every entry's value here was drawn from patent US20230263822A1.

# WBC per entry
Conditions: rat, in vivo, sc, 50 mg/kg
e = 2'-O-(2-methoxyethyl) (MOE); d = 2'-deoxy (DNA)
attribute_measured: WBC (nL⁻¹)

substance	recorded_number
ISIS 416826: 5-10-5 MOE gapmer ATGCCCTTCATGTCTAGGTC (sugars from the 5' end e5 d10 e5, backbone and methylation of C not given here)	7
ISIS 416892: 3-14-3 MOE gapmer GCCCTTCATGTCTAGGTCCA (sugars from the 5' end e3 d14 e3, backbone and methylation of C not given here)	68
ISIS 416999: MOE gapmer, nucleobases 1275 to 1318 of SEQ ID NO: 1 (Table 8) (antisense GCACAGTTTCTGGCAGGCCT; MOE gapmer, wing and gap sizes not given here)	12

----------
Experiment: Hematology assays in cynomolgus monkeys (Example 45)
Assay type: in vivo
Details: day 85; escalating dose regimen
# hemoglobin per entry
attribute_measured: hemoglobin (g/dL)

substance	attribute_measured	recorded_number
ISIS 416858: MOE gapmer, nucleobases 1275 to 1318 of SEQ ID NO: 1 (Table 8) (antisense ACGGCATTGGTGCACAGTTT; MOE gapmer, wing and gap sizes not given here)	hemoglobin	11.9
ISIS 416838: MOE gapmer, nucleobases 1018 to 1042 of SEQ ID NO: 1 (Table 6) (antisense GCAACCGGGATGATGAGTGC; MOE gapmer, wing and gap sizes not given here)	hemoglobin	12.4
ISIS 417002: MOE gapmer, nucleobases 1275 to 1318 of SEQ ID NO: 1 (Table 8) (antisense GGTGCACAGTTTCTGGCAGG; MOE gapmer, wing and gap sizes not given here)	hemoglobin	12.2

----------
Conditions: mouse, in vivo, sc, 50 mg/kg

substance	unit_spec	Cholesterol
ISIS 416867: MOE gapmer, nucleobases 1275 to 1318 of SEQ ID NO: 1 (Table 8) (antisense ACTGGCAGCGGACGGCATTG; MOE gapmer, wing and gap sizes not given here)	mg/dL	144
ISIS 416858: MOE gapmer, nucleobases 1275 to 1318 of SEQ ID NO: 1 (Table 8) (antisense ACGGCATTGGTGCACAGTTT; MOE gapmer, wing and gap sizes not given here)	mg/dL	181

----------
Test: Tolerability in Sprague-Dawley rats: hematology assays (Example 44)
Format: in vivo
Conditions: 50 mg/kg s.c. twice per week for 6 weeks, blood
Strand notation (5' to 3'): a small letter for the sugar, then the base; units joined by * are phosphorothioate-linked, units joined directly phosphodiester-linked; [ ] holds rarer units or linkages, { } end groups; capitals alone tell only the bases. e = 2'-O-(2-methoxyethyl) (MOE); [5mC] = 5-methylcytosine; d = 2'-deoxy (DNA)
# RBC per entry

substance	RBC
ISIS 449708: 3-8-3, 4-8-4, 2-10-2, 3-10-3 or 4-10-4 MOE microwalk gapmer (Table 46) (antisense eA*e[5mC]*eA*dG*dT*dT*dT*d[5mC]*dT*dG*dG*e[5mC]*eA*eG)	6.6 pL⁻¹
ISIS 449711: 3-8-3, 4-8-4, 2-10-2, 3-10-3 or 4-10-4 MOE microwalk gapmer (Table 46) (antisense eA*e[5mC]*dA*dG*dT*dT*dT*d[5mC]*dT*dG*dG*d[5mC]*eA*eG)	6.4 pL⁻¹
ISIS 449707: 3-8-3, 4-8-4, 2-10-2, 3-10-3 or 4-10-4 MOE microwalk gapmer (Table 46) (antisense e[5mC]*eA*e[5mC]*eA*dG*dT*dT*dT*d[5mC]*dT*dG*dG*e[5mC]*eA*eG*eG)	6.0 pL⁻¹
ISIS 449709: 3-8-3, 4-8-4, 2-10-2, 3-10-3 or 4-10-4 MOE microwalk gapmer (Table 46) (antisense eG*e[5mC]*eA*e[5mC]*dA*dG*dT*dT*dT*d[5mC]*dT*dG*dG*d[5mC]*eA*eG*eG*e[5mC])	6.9 pL⁻¹
ISIS 449710: 3-8-3, 4-8-4, 2-10-2, 3-10-3 or 4-10-4 MOE microwalk gapmer (Table 46) (antisense e[5mC]*eA*e[5mC]*dA*dG*dT*dT*dT*d[5mC]*dT*dG*dG*d[5mC]*eA*eG*eG)	6.3 pL⁻¹
